Give IC50 at 72 h for every item shown.
# assay notes: MTT cytotoxicity assay, HeLa
# condition notes: human, HeLa cells
# unit: µM | format: bare number

Consider CC(C)c1cc2c(cc1O)C1(C)CCCC(C)(C)C1=C(O)C2=O (centres unmarked) [Compound 6] . Its measured IC50 at 72 h is 24.4

Consider COc1cccc2c1C(=O)c1c(O)c3c(c(O)c1C2=O)C[C@@](O)(C(=O)CO)C[C@@H]3O[C@H]1C[C@H](N)[C@H](O)[C@H](C)O1 [Doxorubicin, reference compound] . Its measured IC50 at 72 h is 3.64

----------
# assay notes: MTT cytotoxicity assay, HeLa
# Set-up: dose or concentration left out as unconfirmed
# condition notes: human, HeLa cells
Classify as follows. Reported cytotoxicity at 72 h greater than or equal to 30%: label 1. Reported cytotoxicity at 72 h below: label 0.

Query block: Could you verify whether the entry O=c1ccc2ccc(O)cc2o1 [Compound 13, umbelliferone] shows cytotoxicity at 72 h of no less than 30%?
Result block: label 0

Query block: Could you verify whether the entry C=C1CC[C@@H]2[C@](C)(CCC[C@]2(C)C(=O)O)[C@H]1C/C=C(/C)C=O [Compound 2] shows cytotoxicity at 72 h of no less than 30%?
Result block: label 0

Query block: Could you verify whether the entry CC(C)c1cc2c(cc1O)C1(C)CCCC(C)(C)C1=C(O)C2=O (stereo not drawn) [Compound 6] shows cytotoxicity at 72 h of no less than 30%?
Result block: label 1

Query block: Could you verify whether the entry C=C1CCC2C(C)(C(=O)O)CCCC2(C)C1C=CC(C)=O (stereo not drawn) [Compound 1] shows cytotoxicity at 72 h of no less than 30%?
Result block: label 0

Query block: Could you verify whether the entry CC(C)c1cc2c(cc1O)[C@@]1(C)CCCC(C)(C)[C@@H]1CC2=O [Compound 3, sugiol] shows cytotoxicity at 72 h of no less than 30%?
Result block: label 0

Query block: Could you verify whether the entry COc1cccc2c1C(=O)c1c(O)c3c(c(O)c1C2=O)C[C@@](O)(C(=O)CO)C[C@@H]3O[C@H]1C[C@H](N)[C@H](O)[C@H](C)O1 [Doxorubicin, reference compound] shows cytotoxicity at 72 h of no less than 30%?
Result block: label 1
